Target: T1, HSC-F (cynomolgus monkey, UniProt Q95LI8 22-171; Q95LI7 23-181)
T1 chain: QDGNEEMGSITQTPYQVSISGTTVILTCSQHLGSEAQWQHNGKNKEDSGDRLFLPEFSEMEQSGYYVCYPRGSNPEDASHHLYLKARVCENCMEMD
Test: FACS binding
MEASUREMENT_TYPE: EC50 (µg/mL)
Give bare numbers, in µg/mL.

Solved entries:
IgG1-CD3-LFLEDA (antibody, V domains shown) VH: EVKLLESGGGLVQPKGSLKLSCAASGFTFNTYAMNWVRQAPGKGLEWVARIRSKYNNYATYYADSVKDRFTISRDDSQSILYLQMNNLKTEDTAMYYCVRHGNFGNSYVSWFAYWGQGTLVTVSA VL: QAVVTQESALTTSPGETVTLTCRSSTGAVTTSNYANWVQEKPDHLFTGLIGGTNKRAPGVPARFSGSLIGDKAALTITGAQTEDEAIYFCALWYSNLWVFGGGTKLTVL; 0.06
IgG1-huCD3-H3L3-LFLEDA (antibody, V domains shown) VH: EVKLVESGGGLVKPGRSLRLSCAASGFTFNTYAMNWVRQAPGKGLEWVARIRSKYNNYATYYADSVKDRFTISRDDSKSILYLQMNSLKTEDTAMYYCVRHGNFGNSYVSWFAYWGQGTLVTVSS VL: QAVVTQEPSFSVSPGGTVTLTCRSSTGAVTTSNYANWVQQTPGQAFRGLIGGTNKRAPGVPARFSGSILGNKAALTITGAQADDESDYYCALWYSNLWVFGGGTKLTVL; 0.03
IgG1-huCD3-H1L3-LFLEDA (antibody, V domains shown) VH: EVKLVESGGGLVQPGGSLRLSCAASGFTFNTYAMNWVRQAPGKGLEWVARIRSKYNNYATYYADSVKDRFTISRDDSKSSLYLQMNNLKTEDTAMYYCVRHGNFGNSYVSWFAYWGQGTLVTVSS VL: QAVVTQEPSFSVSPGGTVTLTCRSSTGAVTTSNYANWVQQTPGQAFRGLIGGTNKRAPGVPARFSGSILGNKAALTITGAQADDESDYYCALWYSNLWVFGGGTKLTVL; 0.03

For reference, reported EC50 for IgG1-huCD3-H4L3-LFLEDA (antibody, V domains shown) VH: EVKLVESGGGLVKPGRSLRLSCAASGFTFNTYAMNWVRQAPGKGLEWVARIRSKYNNYATYYADSVKDRFTISRDDSKSILYLQMNSLKTEDTAMYYCVRHGNFGNSYVSWFAYWGQGTMVTVSS VL: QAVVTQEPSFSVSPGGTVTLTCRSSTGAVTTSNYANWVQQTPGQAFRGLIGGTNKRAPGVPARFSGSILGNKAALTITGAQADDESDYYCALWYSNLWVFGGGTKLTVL stands at 0.02
